# Test system: morningglory
# run.description: Test A pre-/postemergence herbicide test
# Assay type: in vivo, Ipomoea spp.
# assay.setup: Preemergence, 125 g ai/ha; visual rating on 0 to 100 scale (0 no effect, 100 complete control)
property.label: Morningglory plant response rating
One number for each entry.

As a guide, the following entries are already answered.
*Q* I have this molecule here, O=C1NCC(c2cccc(C(F)(F)F)c2)C1C(=O)Nc1ccccc1F (racemic) , and I need its recorded Morningglory plant response rating.
*A* 0

*Q* I have this molecule here, `O=C1NC[C@@H](c2ccc(F)c(F)c2)[C@@H]1C(=O)Nc1ccccc1F` , and I need its recorded Morningglory plant response rating.
*A* 0

*Q* I have this molecule here, O=C1NCC(c2ccc(Cl)cc2)C1C(=O)Nc1ccccc1F (racemic) , and I need its recorded Morningglory plant response rating.
*A* 0

***
*Q* I have this molecule here, N#Cc1ccccc1NC(=O)C1C(=O)NCC1c1ccccc1 (racemic) , and I need its recorded Morningglory plant response rating.
*A* 0

* * *

Would you kindly list Plant response rating, Ragweed for each of these compounds?
# Tested on: ragweed
# run.description: Test A pre-/postemergence herbicide test
# Type: in vivo, Ambrosia elatior
# assay.setup: Postemergence, 500 g ai/ha; 0 to 100 scale (0 no effect, 100 complete control)
Answers are plain numbers.

*Q* Request body: readout Plant response rating, Ragweed, system ragweed, query O=C1NCC(c2cc3ccccc3o2)C1C(=O)Nc1ccccc1C(F)(F)F (stereo not shown) [Compound 283] . Return the value.
*A* 0

# batch: return Plant response rating, Ragweed for each of the 6 compounds below
1. O=C1NCC(c2cccc(C(F)(F)F)c2)C1C(=O)Nc1cccc(C(F)(F)F)c1 (stereo not shown) [Compound 313]
2. O=C1NCC(c2cccc(C(F)(F)F)c2)C1C(=O)Nc1cccc(Cl)c1F (stereo not shown) [Compound 316]
3. O=C1NCC(c2cccc(Br)c2)C1C(=O)Nc1cccc(F)c1F (stereo not shown) [Compound 309]
4. O=C1NCC(c2cccc(C(F)(F)F)c2)C1C(=O)Nc1ccccc1Cl (stereo not shown) [Compound 312]
5. O=C1NCC(c2cccc(Cl)c2)C1C(=O)Nc1cccc(F)c1F (racemic) [Compound 275]
6. O=C1NCC(c2ccc(Cl)s2)C1C(=O)Nc1cccc(F)c1F (stereo not shown) [Compound 294]

*A*
1: 0; 2: 30; 3: 0; 4: 40; 5: 30; 6: 20

# batch: return Plant response rating, Ragweed for each of the 2 compounds below
1. CN1CC(c2ccc(F)c(F)c2)C(C(=O)Nc2ccccc2F)C1=O (stereo not shown) [Compound 302]
2. O=C1NCC(c2cccc(Br)c2)C1C(=O)Nc1ccccc1F (stereo not shown) [Compound 307]

*A*
0
0

*Q* Request body: readout Plant response rating, Ragweed, system ragweed, query O=C1NCC(c2cc3ccccc3s2)C1C(=O)Nc1ccccc1C(F)(F)F (stereo not shown) [Compound 297] . Return the value.
*A* 0

* * *

# Test system: barnyardgrass
# run.description: Test B flooded paddy test
# Assay type: in vivo, Echinochloa crus-galli
# assay.setup: 500 g ai/ha, Flood; scale of 0 to 100 where 0 is no effect and 100 is complete control
property.label: Plant response rating, Barnyardgrass
Give bare numbers.

As a guide, the following entries are already answered.
*Q* I have this molecule here, CN1CC(c2ccc(F)c(F)c2)C(C(=O)Nc2ccccc2F)C1=O (stereo not drawn) , and I need its recorded Plant response rating, Barnyardgrass.
*A* 80

*Q* I have this molecule here, O=C1NCC(c2ccc(Cl)cc2)C1C(=O)Nc1ccccc1C(F)(F)F (stereo not drawn) , and I need its recorded Plant response rating, Barnyardgrass.
*A* 40

*Q* I have this molecule here, O=C1NCC(c2cc3ccccc3s2)C1C(=O)Nc1ccccc1F (stereo not drawn) , and I need its recorded Plant response rating, Barnyardgrass.
*A* 30

*Q* I have this molecule here, Cc1ccc(C2CNC(=O)C2C(=O)Nc2ccccc2F)cc1 (racemic) , and I need its recorded Plant response rating, Barnyardgrass.
*A* 70

*Q* I have this molecule here, O=C1NCC(c2cc(F)cc(F)c2)C1C(=O)Nc1ccc(F)cc1F (racemic) , and I need its recorded Plant response rating, Barnyardgrass.
*A* 60

*Q* I have this molecule here, O=C1NCC(c2cccc(C(F)F)c2)C1C(=O)Nc1ccc(F)c(F)c1F (racemic) , and I need its recorded Plant response rating, Barnyardgrass.
*A* 75

# batch: return Plant response rating, Barnyardgrass for each of the 4 molecules below
1. O=C1NCC(c2ccc(C(F)(F)F)cc2)C1C(=O)Nc1ccccc1Cl (stereo not drawn)
2. O=C1NCC(c2ccc(Br)c(Br)c2)C1C(=O)Nc1cccc(F)c1F (stereo not drawn)
3. Cc1ccc(C2CNC(=O)C2C(=O)Nc2cccc(F)c2)cc1 (racemic)
4. O=C1NCC(c2ccc(Cl)cc2)C1C(=O)Nc1ccccc1F (stereo not drawn)

*A*
[60, 0, 60, 40]

# batch: return Plant response rating, Barnyardgrass for each of the 2 molecules below
1. COc1cc(C2CNC(=O)C2C(=O)Nc2ccccc2Cl)ccc1F (racemic)
2. O=C1NCC(c2cc3ccccc3s2)C1C(=O)Nc1cccc(F)c1F (stereo not drawn)

*A*
1: 30; 2: 30
